Origin of values: PubChem BioAssay (NCI)

Overview of reported TGI across a group of compounds:
System: HS 578T breast
assay-name: NCI tumour cell line growth inhibition, 48 h

C/C(=N\NC(=S)N(C)CCN(C)C(=S)N/N=C(\C)c1ccccn1)c1ccccn1: > 100 µM

# TGI (compound: `CCCCN(CCCC)CCCn1c(=O)c2c3ccccc3n(C)c2n2nnc(-c3ccccc3)c12` ) is > 100 µM

# TGI (compound: `CC(=O)[C@@]1(O)[C@H](C)C[C@H]2[C@@H]3C=C(C)C4=Cc5c(cnn5-c5ccccc5)C[C@]4(C)[C@H]3[C@@H](O)C[C@@]21C` ) is 12.9 µM

# TGI (compound: `C=CN(C)S(C)(=O)=O` ) is > 100 µM
